Just for reference, ChEMBL document CHEMBL1150298 is where these values come from.

# experimental-details: Aqueous solubility of compound at pH 7 by spectrophotometry
# test-context: aqueous solution
readout-kind: solubility (µg/mL)

>>> experimental_value("Nc1ccc(S(=O)(=O)Nc2ncccn2)cc1")
40
